Tested on: HT29 colon
testMethodNotes: NCI-60 one-dose screen, 48 h (100 = growth as untreated, 0 = no growth, -100 = all killed)
measurementContext: 10 µM unless noted
This is part of a sample that, as a whole, favours compounds with a hit. Of some 83,000 tested, about 20% had one in any assay. The source made the active and inactive calls. The calls were made as follows: active = growth percent below 10; inactive = the rest.
Hi there, I'd appreciate the recorded growth for every entry that follows.

CC(C)Cc1nc(Nc2ccccc2)[nH]c(=O)c1C#N = 51.7% (inactive)
Brc1ccc(Nc2nc(Nc3cnc4ccccc4c3)c3[nH]cnc3n2)cc1 = 70.7% (inactive)

Then this compound:
Query string: Name the recorded growth for COc1ccc(C/C(C)=C(\c2ccc(Cl)cc2)c2ccc(OCCN3CCCC3)cc2)cc1 .
Result string: 19.6% (inactive)
